Biological target: UniProtKB P30542
Sequence (P30542 whole entry): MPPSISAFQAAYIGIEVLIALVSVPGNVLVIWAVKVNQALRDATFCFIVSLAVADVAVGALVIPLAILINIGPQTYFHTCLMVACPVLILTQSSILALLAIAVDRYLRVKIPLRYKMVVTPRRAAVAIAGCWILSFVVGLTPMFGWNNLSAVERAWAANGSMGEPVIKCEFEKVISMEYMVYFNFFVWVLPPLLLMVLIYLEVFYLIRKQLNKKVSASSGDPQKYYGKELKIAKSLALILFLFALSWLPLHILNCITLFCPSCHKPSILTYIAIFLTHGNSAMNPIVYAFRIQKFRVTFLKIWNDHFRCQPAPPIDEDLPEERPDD
Assay: Displacement of [3H]DPCPX from human adenosine receptor A1 expressed in HEK293 cell membranes at 0.1 uM after 90 mins by liquid scintillation counting method relative to control
EXPERIMENTAL READOUT: inhibition (%)

Some solved entries appear below for comparison.
>>> obs_value("CCCn1c(=O)c2[nH]c(-c3cnn(C(C)C4CC(=O)N(c5cccc(C(F)(F)F)c5)C4)c3)nc2n(CCC)c1=O (configuration not stated)")
17
>>> obs_value("CCCn1c(=O)c2[nH]c(-c3cnn(CC4CC(=O)N(c5cccc(C(F)(F)F)c5)C4)c3)nc2n(CC)c1=O (configuration not stated)")
18
>>> obs_value("CCCn1c(=O)c2[nH]c(-c3ccc(OCC4CC(=O)N(c5cccc(F)c5)C4)cc3)nc2n(CCC)c1=O (configuration not stated)")
33
>>> obs_value("CCCn1c(=O)c2[nH]c(-c3cnn(CC4CC(=O)N(c5cccc(OC(F)(F)F)c5)C4)c3)nc2n(CCC)c1=O (configuration not stated)")
20
>>> obs_value("CCCn1c(=O)c2[nH]c(-c3cnn(CC(=O)N4CCN(c5ccc(C)cc5)CC4)c3)nc2n(CCC)c1=O")
58

a: CCCn1c(=O)c2[nH]c(-c3cnn(CC4CC(=O)N(c5cccc(OC)c5)C4)c3)nc2n(CCC)c1=O (configuration not stated)
b: CCCn1c(=O)c2[nH]c(-c3cnn(CC4CC(=O)N(c5cccc(OC(F)(F)F)c5)C4)c3)nc2n(CC)c1=O (configuration not stated)
c: CCCn1c(=O)c2[nH]c(-c3cc(OCC4CC(=O)N(c5ccc(C(F)(F)F)cc5)C4)no3)nc2n(CCC)c1=O (configuration not stated)
-- ask Provide the items ranked by increasing inhibition. Please respond with the labels ordered as the question requires.
-- reply c, b, a
(c: 0%, b: 15%, a: 22%)

P: CCCn1c(=O)c2[nH]c(-c3cnn(CC4CCN(c5ccc(OC)cc5)C4)c3)nc2n(CCC)c1=O (configuration not stated)
Q: CCCn1c(=O)c2[nH]c(-c3ccc(OCC4CC(=O)N(c5cccc(C(F)(F)F)c5)C4)cc3)nc2n(CCC)c1=O (configuration not stated)
R: CCCn1c(=O)c2[nH]c(-c3cnn(CC4CC(=O)N(c5ccc(F)cc5F)C4)c3)nc2n(CCC)c1=O (configuration not stated)
S: CCCn1c(=O)c2[nH]c(-c3cnn(CC4CC(=O)N(c5ccc(OC)cc5)C4)c3)nc2n(CCC)c1=O (configuration not stated)
T: CCCn1c(=O)c2[nH]c(-c3cc(OCC4CC(=O)N(c5cccc(C(F)(F)F)c5)C4)no3)nc2n(CCC)c1=O (configuration not stated)
-- ask Please list these compounds in decreasing order of inhibition. Use the labels to give the ranking in the order requested.
-- reply S, P, R, Q, T

P: CCCn1c(=O)c2[nH]c(-c3cnn(CC4CC(=O)N(c5ccc(C#N)cc5)C4)c3)nc2n(CCC)c1=O (configuration not stated)
Q: CCCn1c(=O)c2[nH]c(-c3ccc(OCC4CC(=O)N(c5ccc(C(F)(F)F)cc5)C4)cc3)nc2n(CCC)c1=O (configuration not stated)
R: CCCn1c(=O)c2[nH]c(-c3ccc(OCC4CC(=O)N(c5cccc(C(F)(F)F)c5)C4)nc3)nc2n(CCC)c1=O (configuration not stated)
-- ask Order the records by inhibition, with each subsequent value no larger than the one before. Present the labels in the sequence the task asks for.
-- reply Q, P, R
(Q: 29%, P: 18%, R: 4%)

P: CCCn1c(=O)c2[nH]c(-c3cnn(CC4CC(=O)N(c5ccc(OC(F)(F)F)cc5)C4)c3)nc2n(CCC)c1=O (configuration not stated)
Q: CCCn1c(=O)c2[nH]c(-c3cnn(CC4CC(=O)N(c5ccc(OC)cc5)C4)c3)nc2n(CC)c1=O (configuration not stated)
R: CCCn1c(=O)c2[nH]c(-c3cnn(CC4CCN(c5cccc(C(F)(F)F)c5)C4)c3)nc2n(CCC)c1=O (configuration not stated)
-- ask Arrange the 3 compounds from largest to smallest inhibition. The response must list the labels following the requested ordering.
-- reply R, P, Q
(R: 38%, P: 23%, Q: 15%)

A: CCCn1c(=O)c2[nH]c(-c3ccc(OCC4CC(=O)N(c5ccc(F)cc5)C4)cc3)nc2n(CCC)c1=O (configuration not stated)
B: CCCn1c(=O)c2[nH]c(-c3ccc(OCC4CC(=O)N(c5cccc(F)c5)C4)nc3)nc2n(CCC)c1=O (configuration not stated)
C: CCCn1c(=O)c2[nH]c(-c3cnn(CC4CCN(c5cccc(OC)c5)C4)c3)nc2n(CCC)c1=O (configuration not stated)
-- ask Rank entries according to their inhibition, from the largest number down. Returns: the labels arranged in the requested order.
-- reply C, A, B

1: CCCn1c(=O)c2[nH]c(-c3ccc(OCC4CC(=O)N(c5ccc(C(F)(F)F)cc5)C4)nc3)nc2n(CCC)c1=O (configuration not stated)
2: CCCn1c(=O)c2[nH]c(-c3cnn(CC(=O)N4CCN(c5ccc(F)cc5F)CC4)c3)nc2n(CCC)c1=O
3: CCCn1c(=O)c2[nH]c(-c3cnn(CC4CC(=O)N(c5ccc(C(F)(F)F)cc5)C4)c3)nc2n(CC)c1=O (configuration not stated)
-- ask Hi! Can you put these in order of inhibition, lowest number first? List the labels according to the requested ordering.
-- reply 3, 1, 2
(3: 6%, 1: 25%, 2: 45%)

A: CCCn1c(=O)c2[nH]c(-c3cnn(CC(=O)N4CCN(c5cccc(C(F)(F)F)c5)CC4)c3)nc2n(CCC)c1=O
B: CCCn1c(=O)c2[nH]c(-c3cnn(CC4CCN(c5cccc(C(F)(F)F)c5)C4=O)c3)nc2n(CCC)c1=O (configuration not stated)
-- ask Compare A and B by numeric inhibition and name the larger one. Refer to your chosen entry by its label in the reply.
-- reply B
(B: 58%, A: 32%)

Values were extracted from ChEMBL document CHEMBL3994582.
